- System: HT-29 cells
- Test Summary: cells
- Particulars: Homo sapiens, HT-29, 48 h, read-out: HT-29 IV (intermediate value)
Measured Metric: IC50 (nM)
# number only, unit nM dropped from output

*Q* Consider the compound "O=c1[nH]cc(F)c(=O)[nH]1" and give its measured IC50.
*A* 2580
